The measurements presented in this section are drawn from the supplement of paper PMC10307832.

- System: NCI-H1734
- Assay text: relative viability (nuclei count vs DMSO), 5 days (fraction); higher = more cells survive
- Measurement context: first compound 4 µM
Reported relative viability values follow for various molecules
Write the number on its own, no unit after it.

Take a look at these entries with their results.
1) COc1cc(N2CCC(C(N)=O)CC2)ccc1Nc1nc(N)c(Cl)c(Nc2ccccc2S(=O)(=O)C(C)C)n1 [HG-5-88-01] + CC(=O)c1c(C)c2cnc(Nc3ccc(N4CCNCC4)cn3)nc2n(C2CCCC2)c1=O [Palbociclib] (partner 0.5 µM) | 0.312
2) Clc1ccc(Nc2nnc(Cc3ccncc3)c3ccccc23)cc1 [Vatalanib] + COc1cc2c(Oc3ccc(NC(=O)C4(C(=O)Nc5ccc(F)cc5)CC4)cc3F)ccnc2cc1OCCCN1CCOCC1 [Foretinib] (partner 0.25 µM) | 0.782
3) COc1cc(N2CCC(C(N)=O)CC2)ccc1Nc1nc(N)c(Cl)c(Nc2ccccc2S(=O)(=O)C(C)C)n1 [HG-5-88-01] + CC1(C)CCC(c2ccc(Cl)cc2)=C(CN2CCN(c3ccc(C(=O)NS(=O)(=O)c4ccc(N[C@H](CCN5CCOCC5)CSc5ccccc5)c(S(=O)(=O)C(F)(F)F)c4)cc3)CC2)C1 [Navitoclax] (partner 0.5 µM) | 0.757
4) COc1cc(N2CCC(C(N)=O)CC2)ccc1Nc1nc(N)c(Cl)c(Nc2ccccc2S(=O)(=O)C(C)C)n1 [HG-5-88-01] + Nc1ncn([C@H]2C[C@H](O)[C@@H](CO)O2)c(=O)n1 [Decitabine] (partner 2 µM) | 0.532
5) C[C@@H]1CN(CC(=O)Nc2ccc3c(c2)Cc2cccc(-c4cc(=O)cc(N5CCOCC5)o4)c2S3)C[C@H](C)O1 + CC(C)C[C@H](NC(=O)[C@H](Cc1ccccc1)NC(=O)c1cnccn1)B(O)O [Bortezomib] (partner 0.002 µM) | 1.1

Request: Find the measured relative viability: item Clc1ccc(Nc2nnc(Cc3ccncc3)c3ccccc23)cc1 [Vatalanib] + Nc1ncn([C@H]2C[C@H](O)[C@@H](CO)O2)c(=O)n1 [Decitabine] (partner 2 µM) , target or system NCI-H1734.
Result: 0.518

Request: // same read-out, input: COc1cc(N2CCC(C(N)=O)CC2)ccc1Nc1nc(N)c(Cl)c(Nc2ccccc2S(=O)(=O)C(C)C)n1 [HG-5-88-01] + COc1cccc2cc(-c3nc([C@H]4CC[C@H](C(=O)O)CC4)n4ncnc(N)c34)[nH]c12 [OSI-027] (partner 0.5 µM)
Result: 0.386

Request: Same thing, different molecule: Clc1ccc(Nc2nnc(Cc3ccncc3)c3ccccc23)cc1 [Vatalanib] + COc1cccc2cc(-c3nc([C@H]4CC[C@H](C(=O)O)CC4)n4ncnc(N)c34)[nH]c12 [OSI-027] (partner 0.5 µM)
Result: 0.589

Request: Thanks! And COc1cc(N2CCC(C(N)=O)CC2)ccc1Nc1nc(N)c(Cl)c(Nc2ccccc2S(=O)(=O)C(C)C)n1 [HG-5-88-01] + Cc1cc(Nc2cc(N3CCN(C)CC3)nc(Sc3ccc(NC(=O)C4CC4)cc3)n2)n[nH]1 [Tozasertib] (partner 0.1 µM) ?
Result: 0.27
